Here the recorded MIC is given for each entry.
test system: Pseudomonas aeruginosa ATCC 27853; experiment: ≥ marks a high value that may be exact or a test limit, other limits are often not marked, values filed in µg/mL are converted to µM

smiles_record=CC[C@H](C)[C@H](NC(=O)[C@H](CCCCN)NC(=O)[C@H](CC(N)=O)NC(=O)[C@H](CC(C)C)NC(=O)[C@@H](NC(=O)[C@H](CCCCN)NC(=O)[C@@H]1CCCN1)[C@@H](C)CC)C(=O)N[C@@H](CC(C)C)C(=O)NCC(=O)N[C@@H](CCCCN)C(=O)N[C@H](C(=O)N[C@@H](CC(C)C)C(=O)N[C@@H](CCCN=C(N)N)C(=O)N[C@@H](CC(C)C)C(=O)N[C@@H](C)C(=O)N[C@@H](C)C(=O)N[C@@H](C)C(=O)N[C@@H](Cc1ccccc1)C(=O)N[C@@H](CCCCN)C(N)=O)[C@@H](C)CC result_type=MIC measured_value="1.5 µM"

Now for another entry.
Exam item: Param item = CC(C)[C@H](NC(=O)[C@H](CCCCN)NC(=O)[C@H](C)NC(=O)[C@@H](NC(=O)[C@@H](NC(=O)[C@H](CCCN=C(N)N)NC(=O)[C@H](CCCN=C(N)N)NC(=O)[C@H](Cc1c[nH]c2ccccc12)NC(=O)[C@@H](N)Cc1c[nH]c2ccccc12)[C@@H](C)O)C(C)C)C(=O)N[C@@H](CCCN=C(N)N)C(=O)N[C@@H](CC(N)=O)C(=O)N[C@@H](C)C(=O)NCC(=O)N[C@@H](CCCN=C(N)N)C(=O)N[C@@H](CCCCN)C(N)=O ; retrieve measured MIC.
Marked response: 25 µM

---

system: Staphylococcus aureus ATCC 25923
result-type: MIC (µM)
Please respond with the number in µM and leave the unit unwritten.

molecule="CC[C@H](C)[C@H](N)C(=O)N[C@@H](CC(C)C)C(=O)NCC(=O)N[C@@H](CCCCN)C(=O)N[C@@H](CC(C)C)C(=O)N[C@@H](CC(C)C)C(=O)N[C@@H](CO)C(=O)N[C@H](C(=O)N[C@@H](C)C(=O)N[C@@H](C)C(=O)NCC(=O)N[C@@H](CC(C)C)C(=O)N[C@@H](CC(C)C)C(=O)N[C@@H](CO)C(=O)N[C@@H](CC(N)=O)C(=O)N[C@@H](CC(C)C)C(N)=O)[C@@H](C)O [ILGKLLSTAAGLLSNL]" measured_value=50

Now consider a different molecule.
Exam item: Which MIC is listed for NC(=O)C[C@H](NC(=O)[C@H](Cc1cnc[nH]1)NC(=O)[C@H](CC(N)=O)NC(=O)[C@@H](N)Cc1ccc(O)cc1)C(=O)N[C@@H](Cc1ccccc1)C(=O)O [YNHNF] ?
Marked response: 300

---

system: Bacillus subtilis KCTC 3068
result-type: log10 of MIC (log10 of the value in µM)
Recorded MIC (log10, µM)

Exam item: Please look up its log10 of MIC: CC(C)C[C@H](NC(=O)[C@H](Cc1ccccc1)NC(=O)[C@H](CCCCN)NC(=O)[C@H](Cc1c[nH]c2ccccc12)NC(=O)[C@H](Cc1c[nH]c2ccccc12)NC(=O)[C@H](Cc1c[nH]c2ccccc12)NC(=O)[C@H](CCCCN)NC(=O)[C@H](Cc1ccccc1)NC(=O)[C@H](CCCN=C(N)N)NC(=O)[C@H](CCCN=C(N)N)NC(=O)[C@@H](N)C(C)C)C(=O)N[C@@H](CCCN=C(N)N)C(=O)N[C@@H](CCCN=C(N)N)C(N)=O [VRRFKWWWKFLRR]
Marked response: -0.30

Exam item: Thanks! And CC[C@H](C)[C@H](NC(=O)[C@H](CCCCN)NC(=O)[C@H](CC(C)C)NC(=O)[C@H](CC(C)C)NC(=O)[C@@H](N)CCCCN)C(=O)N[C@@H](Cc1c[nH]c2ccccc12)C(=O)N[C@@H](Cc1c[nH]c2ccccc12)C(=O)N[C@H](C(=O)N[C@@H](CCCCN)C(=O)N[C@H](C(=O)N[C@@H](CC(C)C)C(=O)N[C@@H](CCCCN)C(N)=O)C(C)C)[C@@H](C)CC [KLLKIWWIKVLK] ?
Marked response: 0.90

Exam item: // next record CC[C@H](C)[C@H](NC(=O)[C@H](CCCCN)NC(=O)[C@H](Cc1c[nH]c2ccccc12)NC(=O)[C@@H](N)CCCN=C(N)N)C(=O)N[C@@H](Cc1ccccc1)C(=O)N[C@@H](CCCCN)C(=O)N[C@@H](CCCCN)C(=O)N[C@H](C(=O)N[C@H](C(=O)N[C@@H](CCCCN)C(=O)N[C@@H](CCCCN)C(=O)N[C@@H](C)C(N)=O)C(C)C)C(C)C [RWKIFKKVVKKA]
Marked response: 1.20

Exam item: Same thing, different compound: CC[C@H](C)[C@H](NC(=O)[C@H](CCCN=C(N)N)NC(=O)[C@H](CC(C)C)NC(=O)[C@H](CCC(N)=O)NC(=O)[C@H](CCCCN)NC(=O)[C@H](CC(C)C)NC(=O)[C@H](CC(C)C)NC(=O)[C@H](CC(C)C)NC(=O)[C@@H](NC(=O)[C@H](CCCCN)NC(=O)[C@H](CC(=O)O)NC(=O)[C@H](C)NC(=O)[C@@H](NC(=O)[C@H](CCCCN)NC(=O)[C@@H](N)CCCCN)C(C)C)C(C)C)C(=O)N[C@@H](CCSC)C(=O)N[C@@H](CCCN=C(N)N)C(=O)N[C@@H](CC(C)C)C(=O)O [KKVADKVLLLKQLRIMRL]
Marked response: 0.30

Exam item: What would you report for CC[C@H](C)[C@H](N)C(=O)N[C@@H](CC(C)C)C(=O)N1CCC[C@H]1C(=O)N[C@@H](Cc1c[nH]c2ccccc12)C(=O)N[C@@H](CCCCN)C(=O)N[C@@H](Cc1c[nH]c2ccccc12)C(=O)N[C@@H](CCCCN)C(=O)N[C@@H](Cc1c[nH]c2ccccc12)C(=O)N[C@@H](Cc1c[nH]c2ccccc12)C(=O)N[C@@H](CCCCN)C(=O)N[C@@H](Cc1c[nH]c2ccccc12)C(=O)N[C@@H](CCCN=C(N)N)C(=O)N[C@@H](CCCN=C(N)N)C(N)=O [ILPWKWKWWKWRR] ?
Marked response: 0.40

---

Measured MIC by item
test system: Candida albicans ATCC 2002

molecule="CC[C@H](C)[C@H](NC(=O)[C@H](CC(C)C)NC(=O)[C@H](CC(=O)O)NC(=O)[C@H](CCC(N)=O)NC(=O)[C@H](CCC(N)=O)NC(=O)[C@H](CC(C)C)NC(=O)[C@H](CCC(=O)O)NC(=O)[C@@H]1CCCN1C(=O)[C@@H](N)Cc1ccc(O)cc1)C(=O)N[C@@H](C)C(=O)N[C@@H](CCCN=C(N)N)C(=O)N[C@@H](CC(C)C)C(=O)N[C@@H](CC(C)C)C(=O)O [YPELQQDLIARLL]" assayed_system="Candida albicans ATCC 2002" measured_value="15.9 µM"
molecule="CC[C@H](C)[C@@H]1NC(=O)[C@H](CO)NC(=O)[C@H](CCCCN)NC(=O)[C@H]([C@@H](C)O)NC(=O)[C@H](Cc2c[nH]c3ccccc23)NC(=O)[C@@H](NC(=O)CNC(=O)[C@H](CCCCN)NC(=O)[C@@H](N)CC(C)C)CSSC[C@@H](C(=O)N[C@@H](Cc2ccccc2)C(=O)O)NC(=O)[C@@H]2CCCN2C(=O)[C@H](CCCCN)NC(=O)[C@@H]2CCCN2C(=O)[C@@H]2CCCN2C1=O [LKGCWTKSIPPKPCF]" assayed_system="Candida albicans ATCC 2002" measured_value="2.75 µM"

Exam item: Quick one: MIC of CC(C)C[C@H](NC(=O)[C@H](CCC(=O)O)NC(=O)[C@@H]1CCCN1C(=O)[C@H](CCC(=O)O)NC(=O)[C@@H](NC(=O)[C@H](C)NC(=O)[C@H](C)NC(=O)[C@@H](N)CC(=O)O)C(C)C)C(=O)N[C@@H](Cc1ccc(O)cc1)C(=O)N[C@@H](Cc1cnc[nH]1)C(=O)N[C@@H](Cc1c[nH]c2ccccc12)C(=O)NCC(=O)N[C@@H](CCCCN)C(=O)N[C@H](C(=O)N[C@@H](Cc1c[nH]c2ccccc12)C(=O)N[C@@H](CC(C)C)C(=O)N1CCC[C@H]1C(=O)N[C@@H](CC(N)=O)C(=O)O)C(C)C [DAAVEPELYHWGKVWLPN] ?
Marked response: ≥ 94.1 µM

Exam item: Now the molecule CC(C)C[C@H](NC(=O)CNC(=O)[C@@H]1CCCN1C(=O)[C@H](CC(C)C)NC(=O)[C@@H](N)Cc1ccccc1)C(=O)N[C@@H](CCC(=O)O)C(=O)N[C@@H](CS)C(=O)N[C@H](C(=O)N[C@@H](Cc1c[nH]c2ccccc12)C(=O)O)C(C)C [FLPGLECVW]
Marked response: ≥ 188 µM
